Items are presented alongside their recorded IC50.
- tested-system: SARS-CoV-2-S1 (RBD)-His protein (Trenzyme) (SARS-CoV-2, UniProt P0DTC2 319-541)
- measurement-notes: competition ELISA, RBD binding to coated ACE2

# binder, IC50 [nM]
data = [
    ("NI-607.429_B9 (antibody, V domains shown) VH: EVQLVESGGGLVQPGGSLRLSCAASGFTFSSYWMSWVRQAPGKGLEWVANIKQDGSEKYYVDSVKGRFTISRDNAKNSLYLQMNSLRAEDTAVYYCASLFWRRGSFDPWGQGTLVTVSS VL: QSVLTQPHSVSESPGKTVTISCTRSTGSIASNYVQWYQQRPGSAPTTVIYEDNQRPSGVPDRFSGSIDSSSNSASLTISGLKTEDEADYYCQSYDTSSYWVFGGGTKLTVL", 0.074),
    ("NI-607.532_F3 (antibody, V domains shown) VH: EVQLVQSGAEVKKPGESLKISCKGFGYIFSNDWIGWVRQKPGKGLEWMGIIYPGDSDTRYSPSFRGQVTISADKSVSTAYLQWDSLKASDTAVYYCTRPRYTTMIVGSNPFDVWGQGTTVTVSS VL: QSVLTQPPSVSGAPGQRVTISCTGSSSNIGGGYDVHWYQKLPGTAPKLLIFDNDNRPSGVPDRFSGSKSDTSASLTITGLQAEDEADYFCQSYDSSLSGSGVVFGGGTKLTVL", 0.353),
    ("NI-607.529_B9 (antibody, V domains shown) VH: QVQLQESGPGLVKPSETLSLTCTVSGGSISSSSYYWGWIRQPPGKGLEWIGNIYYSGSTYYNPSLKSRVTISVDTSKNQFSLKLNSVTAADTAVYFCARLLWLRGSYYWGQGTLVTVSS VL: SYELTQPHSVSESPGKTVTISCTGSSGSIASNYVQWYQQRPGSAPTTVIYEDNQRPSGVPDRFSGSIDSSSNSASLTISGLKTEDEADYYCQSYDSSNWVFGGGTKLTVL", 0.116),
    ("NI-607.274_B7 (antibody, V domains shown) VH: QVQLVESGGGRVQPGRSLRLSCAASGFTFSTHGMHWVRQVPGKGLDWITGITYDGSDQFYADSVKGRFTISRDNSKNMLYLQMNSLRAEDTAVYFCAKDLEWLTNYLDHWGQGTLVTVSS VL: DVVMTQSPGTLSVSPGERATLSCRASQNINYNLAWYQQKPGQAPRLLIFDASTRATGIPARFTGSGSGTEFTLTISSLQSEDFAVYYCQQSNAWLTFGGGTKVEIK", 7.8),
]
